Please provide measured Tm for the entries that follow.
test system: 25-mer oligoribonucleotide complement (H-ras codon 12 RNA target); test: Melting curves, hybridization to 25-mer RNA target; assay type: binding, human; details: Table 5, 2'-modified 17-mer with 7-deoxy gap, 25-mer oligoribonucleotide complement
Report only the number, with the unit °C understood.

Ask: Recorded Tm for O-Propyl: 2'-O-propyl modified phosphorothioate 17-mer with 7-deoxy gap, SEQ ID NO: 3 (antisense CCACACCGACGGCGCCC; all phosphorothioate, sugars by position and methylation of C not given here; 2'-O-propyl wings flanking a 7-deoxy gap) , please?
Result: 70.4

Ask: Data request, read-out Tm, for 4690: SEQ ID NO: 3 phosphorothioate, 2'-fluoro-modified nucleotides flanking a 7-deoxy gap (antisense CCACACCGACGGCGCCC; all phosphorothioate, sugars by position and methylation of C not given here; 2'-fluoro wings flanking a 7-deoxy gap) [compound 4690]
Result: 76.9

Ask: Bench note: what Tm did CCACACCGACGGCGCCC [3985] (chemistry not given here) [compound 3985, chimeric phosphorothioate, 2'-O-methyl ends, deoxy gap 7] show?
Result: 74.7

Ask: // lookup Tm for CCACACCGACGGCGCCC [2570] (phosphorothioate, further chemistry not given here) [compound 2570]
Result: 64.2

Ask: May I ask what Tm has been recorded for O-Pentyl: 2'-O-pentyl modified phosphorothioate 17-mer with 7-deoxy gap, SEQ ID NO: 3 (antisense CCACACCGACGGCGCCC; all phosphorothioate, sugars by position and methylation of C not given here; 2'-O-pentyl wings flanking a 7-deoxy gap) ?
Result: 68.5

* * *

details: crude HeLa cellular extracts, 37° C.
I'd be grateful if you could share measured T 1/2 for these entries.
Note: unit h is implicit; provide only the numeric part.

Ask: Field request: T 1/2 | item: CsCsAsCsAsCsCoGoAoCoGoGsCsGsCsCsC [compound 4606]
Result: 1.75

Ask: I would be grateful if you could share the reported T 1/2 for CsCsAsCoAoCoCoGoAoCoGoGoCoGsCsCsC [compound 4241] .
Result: 0.9

* * *

tested on: ras mRNA in T24 cells (activated codon 12); assay: Northern blot analysis of ras expression in T24 cells; format: cell-based, human
Measured Metric: decrease of ras mRNA (%)
Response body: numeric value in %, unit text excluded.

Ask: What value of measured decrease of ras mRNA is listed for CCACACCGACGGCGCCC [3984] (chemistry not given here) [compound 3984, chimeric phosphorothioate, 2'-O-methyl ends, deoxy gap 9] ?
Result: 81

Ask: What decrease of ras mRNA value was documented for this substance, 4690: SEQ ID NO: 3 phosphorothioate, 2'-fluoro-modified nucleotides flanking a 7-deoxy gap (antisense CCACACCGACGGCGCCC; all phosphorothioate, sugars by position and methylation of C not given here; 2'-fluoro wings flanking a 7-deoxy gap) [compound 4690] ?
Result: 82

Ask: If you can, please state the reported decrease of ras mRNA value of 4689: SEQ ID NO: 3 phosphorothioate, 2'-fluoro-modified nucleotides flanking a 5-deoxy gap (antisense CCACACCGACGGCGCCC; all phosphorothioate, sugars by position and methylation of C not given here; 2'-fluoro wings flanking a 5-deoxy gap) [compound 4689] .
Result: 63

Ask: Fill in: decrease of ras mRNA of CCACACCGACGGCGCCC [3980] (chemistry not given here) [compound 3980, chimeric phosphorothioate, 2'-O-methyl ends, deoxy gap 5] is ___
Result: 61

Ask: Please report the recorded decrease of ras mRNA for CCACACCGACGGCGCCC [3985] (chemistry not given here) [compound 3985, chimeric phosphorothioate, 2'-O-methyl ends, deoxy gap 7] .
Result: 81
